Source listed as the supplement of paper PMC7125110.

B1: glmS ribozyme (parent)
chain: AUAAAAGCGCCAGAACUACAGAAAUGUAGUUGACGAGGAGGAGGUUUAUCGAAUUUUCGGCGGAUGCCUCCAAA

# Variants of: B1
# PROTOCOL_SUMMARY: kcat; higher = faster cleavage; RNA array
# EXPERIMENTAL_CONTEXT: with glucosamine-6-phosphate
Fewer inactive variants are shown than the library holds.
Collected log10(kcat) values appear next to each entry.
Heads up: the numbers are on a log10 scale; they represent kcat in s⁻¹.

> print(dat)
                             chain.sequence  reported.value
1  AUAAAGGCGCCAGAGCUACAGAAAUGUAGUUGACGAGGAGGAGGUUUAUCGAAUUUUCGGCGGAUGCCUCCAAA           -3.19

# log10(kcat) of "AUAAAUGCGCCAGAAGUACAGAAAUGUAGUUGACGAGGAGGAGGUUUAUCGAAUAUUCGGCGGAUGCCUCCAAA" = -4.76

# log10(kcat) of "AUAAAAGCGCCAGAACUACAGAAAUGUAGUUGGCGAGGAGGAGGUUUAUCGAAUUUGCGGCGGAUGCCUCCAAA" = -4.92

# log10(kcat) of "AUAAAAGCGCCAGAACUACAGAAAUGUAGUUGACGAGGAGGAGGUUUAUCGAAUUCUCGGCGGAUGCCCCCAAA" = -4.44

# log10(kcat) of "AUAAAAGCGCCAGAACUACAGAAAUGUAGUUGACGAAGAGGAGGUUUAUCGACUUUUCGGCGGAUGCCUCCAAA" = -3.22

# log10(kcat) of "AUAAAAGCGCCAGAACUACAGAAAUGUAGUUGACGAGCAGGAGGUUUAGCGAAUUUUCGGCGGAUGCAUCCAAA" = -4.87

# log10(kcat) of "AUAAAAGCGCCAGAACUACAGAAAUGUAGUUGACGAGGAGGAGGUUUAUCGAAAUUCCGGCGGAUGCCUCCAAA" = -3.80

# log10(kcat) of "AUAAAAGCGCCAGAACUACAGAAAUGUAGUUGACGAGGAGGAGGUUUAUCGAAUUGUCGGCGGAUGGCUCCAAA" = -3.06

# log10(kcat) of "AUAAAAGCGCCAGAACUACAGAAAUGUAGUUGACGAGGAGAAGGCUUAUCGAAUUUUCGGCGGAUGCCUCCAAA" = -3.70
